system: CAKI-1 renal; assay: NCI tumour cell line growth inhibition, 48 h
experimental endpoint: TGI (µM)
Give the quantity in µM, number only.

Noted for COc1c(-c2ccccc2)oc2c(CP(=O)(OC)OC)cccc2c1=O : its TGI reads 5.11

Noted for CCCCCC/C=C\CCCCCCCCCc1cc(O)cc(OC)c1O : its TGI reads 1.82

Noted for COC(=O)c1c(C(=O)OC)c2ccc(-c3ccc(Cl)cc3)nn2c1C(=O)c1ccc([N+](=O)[O-])cc1 : its TGI reads 76.2

###

Reported values of GI50 for individual entries
test system: HCT-15 colon; experiment: NCI tumour cell line growth inhibition, 48 h

Please review the following examples before continuing.
- compound: "COc1ccc(NC(=O)c2sc3nc(C)c(C(=O)/C=C/c4ccccc4)cc3c2N)cc1"
  result: "0.892 µM"
- compound: "CO/N=C(\\COc1ccc2c(=O)cc(-c3ccccc3)oc2c1)c1ccc(F)cc1"
  result: "63.9 µM"

Noted for NC(=O)[C@@H](CCC(F)(F)F)N(Cc1ccc(-c2ncon2)cc1F)S(=O)(=O)c1ccc(Cl)cc1 : its GI50 reads 69.6 µM

Noted for O=C1CS/C(=N/S(=O)(=O)c2ccc(N3N=C4c5ccccc5CC4C3c3cccs3)cc2)N(c2ccccc2)C1 (stereo not drawn) : its GI50 reads 35.5 µM

Noted for COc1ccc2oc(=O)cc(C3c4ccc([nH]4)C(c4cc(=O)oc5ccc(OC)cc45)c4ccc([nH]4)C(c4cc(=O)oc5ccc(OC)cc45)c4ccc([nH]4)C(c4cc(=O)oc5ccc(OC)cc45)c4ccc3[nH]4)c2c1 (stereo not drawn) : its GI50 reads 0.399 µM

###

system: MDA-MB-435
Reported values of GI50 for individual entries

- smiles representation: "Cc1ccc2nc3ccccc3c(NCc3ccccc3)c2c1"
  GI50: "4.72 µM"

Bench note, MDA-MB-435: entry N#Cc1c(-c2ccc(Cl)cc2)cc(-c2cc(O)ccc2O)nc1N , its GI50 = 0.686 µM

Bench note, MDA-MB-435: entry COc1ccc(OC)c(Nc2nc3ccccc3c3c2-c2ccc(OC)cc2C3=O)c1 , its GI50 = > 100 µM

Bench note, MDA-MB-435: entry Cn1cc(-c2ccc(-c3cn(C)c4ncccc34)[nH]2)c2cccnc21 , its GI50 = 24 µM

###

tested on: MDA-MB-231 breast; test: NCI tumour cell line growth inhibition, 48 h; in the data active = GI50 below about 0.43 µM; inactive = the rest
# output must be one of active, inactive

Could you check what this test reported for O=C(CC1(O)C(=O)N(Cc2ccccc2)c2ccc(Br)cc21)c1ccc(C(=O)NCC2CCC3(CC2)OOC2(CCCCC2)OO3)cc1 (stereo not drawn) ?
inactive

Could you check what this test reported for N#CCCN1C/C(=C/c2ccccc2)C(=O)/C(=C/c2ccccc2)C1 ?
inactive

Could you check what this test reported for COc1ccc(OC)c(Nc2nc3ccccc3c3c2-c2ccc(OC)cc2C3=O)c1 ?
inactive

Could you check what this test reported for COc1ccc2oc(=O)cc(C3c4ccc([nH]4)C(c4cc(=O)oc5ccc(OC)cc45)c4ccc([nH]4)C(c4cc(=O)oc5ccc(OC)cc45)c4ccc([nH]4)C(c4cc(=O)oc5ccc(OC)cc45)c4ccc3[nH]4)c2c1 (stereo not drawn) ?
inactive

Could you check what this test reported for CO/N=C/C=C\C(=O)N/C=C/C[C@H]1/C=C/[C@H](O)/C=C\C=C\c2cccc(O)c2C(=O)O1 ?
active

Could you check what this test reported for CC12CC[C@@H]3c4cc5c(cc4CC[C@H]3[C@@H]1CCC2O)oc1cc(F)ccc15 (stereo partly drawn) ?
inactive

Could you check what this test reported for CO/N=C(\COc1ccc2c(=O)cc(-c3ccccc3)oc2c1)c1ccc(F)cc1 ?
inactive

Could you check what this test reported for COc1ccc(NC(=O)c2sc3nc(C)c(C(=O)/C=C/c4ccccc4)cc3c2N)cc1 ?
inactive

###

tested on: HT29 colon; assay: NCI tumour cell line growth inhibition, 48 h; in the data active = GI50 below about 0.43 µM; inactive = the rest
# output must be one of active, inactive

- compound: "CCCCCCC/C(=N\\N=C(N)N)c1ccc(O)cc1"
  assigned label: "inactive"
- compound: "COc1cc2c3c(n(CCCN(C)C)c(=O)c2cc1OC)-c1cc2c(cc1C3=O)OCO2"
  assigned label: "active"
- compound: "Nc1ncc2ccc3c(ccn3C3CC(O)C(CO)O3)c2n1 (centres undefined)"
  assigned label: "inactive"

Shift focus to the following entry.
Could you check what this test reported for COc1ccc2oc(=O)cc(C3c4ccc([nH]4)C(c4cc(=O)oc5ccc(OC)cc45)c4ccc([nH]4)C(c4cc(=O)oc5ccc(OC)cc45)c4ccc([nH]4)C(c4cc(=O)oc5ccc(OC)cc45)c4ccc3[nH]4)c2c1 (centres undefined) ?
inactive

###

Reported values of TGI for individual entries
system: HCT-15 colon; experiment: NCI tumour cell line growth inhibition, 48 h

Please review the following examples before continuing.
- compound: "Cn1ccnc1C(=O)/C=C/c1ccc(C(=O)Nc2ccccc2F)cc1"
  TGI: "4.06 µM"
- compound: "CC1=Nn2c(nnc2-c2ccccc2Cl)NC(C)(C)C1"
  TGI: "> 100 µM"
- compound: "O=C(/C=C/c1ccc(OCc2ccccc2)c(OCc2ccccc2)c1)OCc1ccccc1"
  TGI: "> 100 µM"
- compound: "Cn1cc(-c2ccc(-c3cn(C)c4ncccc34)[nH]2)c2cccnc21"
  TGI: "4.63 µM"
- compound: "CCOC(=O)C1(C(C)=O)OC(=O)c2cnccc21 (stereo unspecified)"
  TGI: "> 100 µM"

Bench note, HCT-15 colon: entry COc1cccc(-c2cc(=O)c3cc(NC(C)=O)ccc3[nH]2)c1 , its TGI = > 100 µM

Bench note, HCT-15 colon: entry CN(C)CCCNC(=S)S , its TGI = > 100 µM

Bench note, HCT-15 colon: entry N#C/C(=C\c1ccc(Cl)cc1)c1nc(-c2cc3ccccc3oc2=O)cs1 , its TGI = > 100 µM

###

Reported values of TGI for individual entries
test system: SF-295 CNS; experiment: NCI tumour cell line growth inhibition, 48 h

Please review the following examples before continuing.
- compound: "O=C(N/N=C\\c1cc(Cl)ccc1O)c1ccncc1"
  assay target: "SF-295 CNS"
  experimental endpoint: "TGI"
  result: "> 100 µM"
- compound: "CCCCCc1c(Cl)nc(Cl)nc1Cl"
  assay target: "SF-295 CNS"
  experimental endpoint: "TGI"
  result: "53.7 µM"
- compound: "CO/C(N)=C(\\C#N)N=Cc1ccccc1"
  assay target: "SF-295 CNS"
  experimental endpoint: "TGI"
  result: "> 100 µM"

Noted for CCCCCCC(C)c1ccc2c(c1)C(=O)c1nc3ccncc3c(=O)n1-2 (configuration not stated) : its TGI reads 20.2 µM

Noted for N#Cc1c(-c2ccc(Cl)cc2)cc(-c2cc(O)ccc2O)nc1N : its TGI reads 9.77 µM

Noted for COc1cccc(NC(=O)c2c(SC)c(C#N)c(=O)n(N)c2N)c1 : its TGI reads > 100 µM

Noted for O=C1c2ccccc2C2(O)Nc3c(ccc4ccccc34)C12O (configuration not stated) : its TGI reads > 100 µM

Noted for C[PH+](C)C.C[PH+](C)C.[Au] : its TGI reads > 56.7 µM

Noted for Cc1nc2c(n1-c1ccc(Br)cc1)C(=O)c1ccccc1C2=O : its TGI reads > 59.6 µM

Noted for C=CCCC(CCC=C)(C(=O)O)C(=O)O : its TGI reads > 100 µM

Noted for C=C1CC[C@@H]2C(C)(C)C(O)CCC2(C)C1COc1ccc2ccc(=O)oc2c1 (some centres not stated) : its TGI reads 29.7 µM

Noted for O=C(Nc1ccc(-n2ccc3c(NC(=O)c4ccccc4)nccc32)cc1)c1cccc(C(F)(F)F)c1 : its TGI reads 7.99 µM

###

tested on: MALME-3M melanoma; assay: NCI tumour cell line growth inhibition, 48 h
experimental endpoint: TGI

Please review the following examples before continuing.
- compound: "N=C(c1ccc(-c2cn3cc(C(=N)N4CCCC4)ccc3n2)cc1)N1CCCC1"
  TGI: "> 100 µM"
- compound: "CC(C)(C)c1ccc2c(c1)S(=O)(=O)Nc1cccc(c1)NS(=O)(=O)c1cc(C(C)(C)C)ccc1OCCOCCO2"
  TGI: "> 100 µM"
- compound: "N#Cc1c(-c2ccc(Cl)cc2)cc(-c2cc(O)ccc2O)nc1N"
  TGI: "4.27 µM"
- compound: "O=C(CCl)Nc1ccc2c(Nc3cc(O)ccc3Cl)ncnc2c1"
  TGI: "8.1 µM"
- compound: "O=P(Nc1ccccc1)(Oc1ccccc1)N1CCN(c2ccccc2)CC1 (stereo not given)"
  TGI: "33.4 µM"
- compound: "C=CCCC(CCC=C)(C(=O)O)C(=O)O"
  TGI: "> 100 µM"
- compound: "Cc1ccncc1N1CCN(c2ccnc(Cl)c2)C1=O"
  TGI: "> 100 µM"
- compound: "Cn1ncc(NCCn2cnc3c2c(=O)n(C)c(=O)n3C)c(Cl)c1=O"
  TGI: "> 100 µM"
- compound: "NC(=O)[C@@H](CCC(F)(F)F)N(Cc1ccc(-c2ncon2)cc1F)S(=O)(=O)c1ccc(Cl)cc1"
  TGI: "> 73.7 µM"

Lab note: next compound to report on.
Noted for c1cc2ccc3cc2cc1CNCCN1CCNCc2ccc4ccc(cc4c2)CNCCN(CCNC3)CCNCc2ccc3ccc(cc3c2)CNCC1 : its TGI reads 5.58 µM
